Numbers sourced from the RNAGym collection of RNA variant scans (doi:10.1073/pnas.2313332121).

B1: TPR t1 (parent)
chain: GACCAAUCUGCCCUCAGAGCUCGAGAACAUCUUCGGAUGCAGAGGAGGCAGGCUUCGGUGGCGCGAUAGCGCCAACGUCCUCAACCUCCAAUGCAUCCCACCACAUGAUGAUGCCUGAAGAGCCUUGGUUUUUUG

variants of: B1; experiment: polymerase ribozyme fitness, log enrichment relative to wild type (log ratio); higher = more active; in vitro selection for triplet polymerase activity
Endpoint label: polymerase ribozyme fitness (log ratio)
# print the numeric value only

Worked set:
Lookup: // query polymerase ribozyme fitness (log ratio) value for entry GACCAAUCUGUCCUCAGAGCUCGAGAACAUCUUCGGAUGCAGAGGAGGCAGGCUUCGGUGGCGCGAUAGCGCCAACGUCCUCAACCUCCAAUGCAUCCCACCACAUGAUGAUGCCUGAAGAGCCUUGCUUUUUUG
Found: -2.9

Lookup: // query polymerase ribozyme fitness (log ratio) value for entry GACCAAUCUGCCAUCAGAGCUCGAGAACAUCUUCGGAUGCAGAGGAGGCAGGCUUUGGUGGCGCGAUAGCGCCAACGUCCUCAACCUCCAAUGCAUCCCACCACAUGAUGAUGCCUGAAGAGCCUUGGUUUUUUG
Found: -1.43

Lookup: // query polymerase ribozyme fitness (log ratio) value for entry GACCAAUCUGCCCUCAGAGCUCGAGAACAUCUUCGGAUGCAGAGGAGGCAGGCUUCGGUGGCGCGAUAGCGCCAACGCCCUCAACCUCCAAUGCAUCCCACCACAAGAUGAUGCCUGAAGAGCCUUGGUUUUUUG
Found: 0.00582

Lookup: // query polymerase ribozyme fitness (log ratio) value for entry GACCAAUCUGCCCGCAGAGCUCGAGAACAUCUUCGGAUGCAGAGGAGGCAGGCUUCGGUGGCGCGAUACCGCCAACGUCCUCAACCUCCAAUGCAUCCCACCACAUGAUGAUGCCUGAAGAGCCUUGGUUUUUUG
Found: -3.2

Lookup: // query polymerase ribozyme fitness (log ratio) value for entry GACUAAUCUGCCCUCAGAGCUCGAGAACAUCUUCGGAUGCAGAGGAGGCAGGCUUCGGUGGUGCGAUAGCGCCAACGUCCUCAACCUCCAAUGCAUCCCACCACAUGAUGAUGCCUGAAGAGCGUUGGUUUUUUG
Found: 1.31

Lookup: // query polymerase ribozyme fitness (log ratio) value for entry GACCAGUCUGCCCUCAGAGCUCGAGAACAUCUUCGGAUGCAGAGGAGGCAGGCUUCGGUGGCGCGAUAGCGCCAACGUCCUCAACCUCCAAUGCAUCCCACCACAUGAUGAUGCCUAAAGAGCUUUGGUUUUUUG
Found: -0.162

Further cases:
Lookup: // query polymerase ribozyme fitness (log ratio) value for entry GACCAAUCUGUCCUCAGAGCUCGAGAACAUCUUCGGAUGCAGAGGCGGCAGGCUUCGGUGGCGCGAUAGCGCCAACGUCCUCAACCUCCAAUGCAUCCCACCACAUGAUGAUGCCUGAAAAGCCUUGGUUUUGUG
Found: -0.579

Lookup: // query polymerase ribozyme fitness (log ratio) value for entry GACCAAUCUGCCCUCAGAGCUCGAGAACAUCUUCGGAUGCAGAGGAGGCCGGCUUCGGUGGCGCGAUAGCUCCAACGUCCUCAACCUCCAAUGCAUCCCACCACAUGAUGAUGCCUGAAGAGCCUUGGUAUUUUG
Found: -0.942

Lookup: // query polymerase ribozyme fitness (log ratio) value for entry GACCAAUCUGCCCUCAGAGCUCGAGAACAUCUUCGGAUGCAGAGGAGGCAGGCUUCGGCGGCGCGAUAGCGCCAACGUCCUCAACCUCCAAUGCAUCCCACCACAGGAUGAGGCCUGAAGAGCCUUGGUUUUUUG
Found: -2.31
